Tested on: ECV304 (Endothelial) cells
Assay: MTT cytotoxicity assay, ECV304 cells
Type: cell-based
Details: 10 nM, 48 hours
* marks the point of attachment. Palmitoyl = CCCCCCCCCCCCCCCC(=O)*; Octanoyl = CCCCCCCC(=O)*; Butyryl = CCCC(=O)*
Measure Name: Percentage cytotoxicity (%)
Record the value in %, omitting the unit from your answer.

substance n-Octanoyl-Leu-Met-Tyr-Pro-Thr-Tyr-Leu-Lys-OH (Octanoyl-LMYPTYLK-OH) [DT-O1] , Percentage cytotoxicity observed: 27.9

What the record says about Palmitoyl-Leu-Met-Tyr-Pro-Thr-Tyr-Leu-Lys-OH (Palmitoyl-LMYPTYLK-OH) [DT-P1] : Percentage cytotoxicity is 19.9

Percentage cytotoxicity for n-Butanoyl-Leu-Met-Tyr-Pro-Thr-Tyr-Leu-Lys-OH (Butyryl-LMYPTYLK-OH) [DT-B1] is 19.9

Given item Ac-LMYPTYLK-OH [DT-A1] , the value recorded as its Percentage cytotoxicity is 16.5

###

Overview of reported Percentage cytotoxicity across a group of substances:
Tested on: L132 (Lung) tumor cells
Assay: MTT cytotoxicity assay, L132 cells
Type: cell-based
Settings: 100 nM, 48 hours
* marks the point of attachment. Palmitoyl = CCCCCCCCCCCCCCCC(=O)*; Octanoyl = CCCCCCCC(=O)*; Butyryl = CCCC(=O)*
Value expressed in %; do not type the unit.

n-Butanoyl-Leu-Met-Tyr-Pro-Thr-Tyr-Leu-Lys-OH (Butyryl-LMYPTYLK-OH) [DT-B1] | 10.7
Ac-LMYPTYLK-OH [DT-A1] | 14.6
n-Octanoyl-Leu-Met-Tyr-Pro-Thr-Tyr-Leu-Lys-OH (Octanoyl-LMYPTYLK-OH) [DT-O1] | 14.9

Looking up Palmitoyl-Leu-Met-Tyr-Pro-Thr-Tyr-Leu-Lys-OH (Palmitoyl-LMYPTYLK-OH) [DT-P1] , I see its Percentage cytotoxicity listed as 19.6

###

Listed substances paired with reported Percentage cytotoxicity
Test system: L132 (Lung) tumor cells
Test: MTT cytotoxicity assay, L132 cells
Format: cell-based
Conditions: 10 nM, 48 hours
Excerpt: The cytotoxic effect of Lipo peptide analogs, DT-A1 (SEQ ID NO: 2), DT-B1 (SEQ ID NO: 3), DT-01 (SEQ ID NO: 4), DT-M1 (SEQ ID NO: 5) and DT-P1 (SEQ ID NO: 6) was studied by MTT assay which is based on the principle of uptake of MTT [3-[4,5-dimethylthiazol-2-yl]-2,5-diphenyl tetrazolium bromide], a tetrazolium salt by the metabolically active cells where it is metabolized by active mitochondria into a blue colored formazan product which can be read spectrophotometrically. […]
* marks the point of attachment. Palmitoyl = CCCCCCCCCCCCCCCC(=O)*; Octanoyl = CCCCCCCC(=O)*; Butyryl = CCCC(=O)*
Response body: numeric value in %, unit text excluded.

The reported L132 (Lung) tumor cells Percentage cytotoxicity of n-Butanoyl-Leu-Met-Tyr-Pro-Thr-Tyr-Leu-Lys-OH (Butyryl-LMYPTYLK-OH) [DT-B1] is 26.8

Known value: L132 (Lung) tumor cells Percentage cytotoxicity of the substance Ac-LMYPTYLK-OH [DT-A1] equals 26.4

Form field, Percentage cytotoxicity with L132 (Lung) tumor cells, item Palmitoyl-Leu-Met-Tyr-Pro-Thr-Tyr-Leu-Lys-OH (Palmitoyl-LMYPTYLK-OH) [DT-P1] : 29.0

Given the substance n-Octanoyl-Leu-Met-Tyr-Pro-Thr-Tyr-Leu-Lys-OH (Octanoyl-LMYPTYLK-OH) [DT-O1] and test system L132 (Lung) tumor cells, the measured Percentage cytotoxicity is 25.9

###

System: U87MG (Glioblastoma) tumor cells
Assay: MTT cytotoxicity assay, U87MG cells
Format: cell-based
Settings: 1 μM, 48 hours
* marks the point of attachment. Palmitoyl = CCCCCCCCCCCCCCCC(=O)*; Octanoyl = CCCCCCCC(=O)*; Butyryl = CCCC(=O)*
Measure Name: Percentage cytotoxicity (%)
Give the value in % but do not write % after it.

n-Octanoyl-Leu-Met-Tyr-Pro-Thr-Tyr-Leu-Lys-OH (Octanoyl-LMYPTYLK-OH) [DT-O1] | 21.9
n-Butanoyl-Leu-Met-Tyr-Pro-Thr-Tyr-Leu-Lys-OH (Butyryl-LMYPTYLK-OH) [DT-B1] | 20.6

The recorded Percentage cytotoxicity for Ac-LMYPTYLK-OH [DT-A1] is 21.9

The recorded Percentage cytotoxicity for Palmitoyl-Leu-Met-Tyr-Pro-Thr-Tyr-Leu-Lys-OH (Palmitoyl-LMYPTYLK-OH) [DT-P1] is 18.4

###

Test system: HeP2 (Laryngeal) tumor cells
Assay: MTT cytotoxicity assay, HeP2 cells
Format: cell-based
Conditions: 1 nM, 48 hours
* marks the point of attachment. Palmitoyl = CCCCCCCCCCCCCCCC(=O)*; Octanoyl = CCCCCCCC(=O)*; Butyryl = CCCC(=O)*
Measured Percentage cytotoxicity of individual entries
Give just the number in %; leave the unit off.

Palmitoyl-Leu-Met-Tyr-Pro-Thr-Tyr-Leu-Lys-OH (Palmitoyl-LMYPTYLK-OH) [DT-P1] | 13.9

Looking up n-Butanoyl-Leu-Met-Tyr-Pro-Thr-Tyr-Leu-Lys-OH (Butyryl-LMYPTYLK-OH) [DT-B1] , I see its Percentage cytotoxicity listed as 8.7

Entry n-Octanoyl-Leu-Met-Tyr-Pro-Thr-Tyr-Leu-Lys-OH (Octanoyl-LMYPTYLK-OH) [DT-O1] , Percentage cytotoxicity reported as 8.6

GET /value?item= Ac-LMYPTYLK-OH [DT-A1] &field=Percentage cytotoxicity returns 14.9

###

Tested on: ECV304 (Endothelial) cells
Assay: MTT cytotoxicity assay, ECV304 cells
Format: cell-based
Details: 1 μM, 48 hours
* marks the point of attachment. Palmitoyl = CCCCCCCCCCCCCCCC(=O)*; Octanoyl = CCCCCCCC(=O)*; Butyryl = CCCC(=O)*
# reported Percentage cytotoxicity; entries follow
Numeric answer only, unit % assumed.

Example entries begin here.
n-Butanoyl-Leu-Met-Tyr-Pro-Thr-Tyr-Leu-Lys-OH (Butyryl-LMYPTYLK-OH) [DT-B1] | 25.8
Ac-LMYPTYLK-OH [DT-A1] | 10.8
Palmitoyl-Leu-Met-Tyr-Pro-Thr-Tyr-Leu-Lys-OH (Palmitoyl-LMYPTYLK-OH) [DT-P1] | 25.9

Please look at the following substance next.
Note to self: Percentage cytotoxicity of n-Octanoyl-Leu-Met-Tyr-Pro-Thr-Tyr-Leu-Lys-OH (Octanoyl-LMYPTYLK-OH) [DT-O1] with ECV304 (Endothelial) cells was 23.9

###

System: ECV304 (Endothelial) cells
Assay: MTT cytotoxicity assay, ECV304 cells
Assay type: cell-based
Settings: 1 nM, 48 hours
* marks the point of attachment. Palmitoyl = CCCCCCCCCCCCCCCC(=O)*; Octanoyl = CCCCCCCC(=O)*; Butyryl = CCCC(=O)*
Measure Name: Percentage cytotoxicity (%)
Give just the number in %; leave the unit off.

n-Octanoyl-Leu-Met-Tyr-Pro-Thr-Tyr-Leu-Lys-OH (Octanoyl-LMYPTYLK-OH) [DT-O1] | 16.9

// field: Percentage cytotoxicity; key: n-Butanoyl-Leu-Met-Tyr-Pro-Thr-Tyr-Leu-Lys-OH (Butyryl-LMYPTYLK-OH) [DT-B1] ; value = 18.7

Query Palmitoyl-Leu-Met-Tyr-Pro-Thr-Tyr-Leu-Lys-OH (Palmitoyl-LMYPTYLK-OH) [DT-P1] yields Percentage cytotoxicity of 18.8

Query Ac-LMYPTYLK-OH [DT-A1] yields Percentage cytotoxicity of 8.0

###

System: PA-1 (Ovary) tumor cells
Assay: MTT cytotoxicity assay, PA-1 cells
Format: cell-based
Settings: 10 nM, 48 hours
* marks the point of attachment. Palmitoyl = CCCCCCCCCCCCCCCC(=O)*; Octanoyl = CCCCCCCC(=O)*; Butyryl = CCCC(=O)*
Measure Name: Percentage cytotoxicity

Form: item n-Octanoyl-Leu-Met-Tyr-Pro-Thr-Tyr-Leu-Lys-OH (Octanoyl-LMYPTYLK-OH) [DT-O1] ; test system PA-1 (Ovary) tumor cells; Percentage cytotoxicity: 37.8 ± 2.2%

Item Ac-LMYPTYLK-OH [DT-A1] was tested on PA-1 (Ovary) tumor cells; the reported Percentage cytotoxicity is 24.9 ± 2.6%

Response field Percentage cytotoxicity (PA-1 (Ovary) tumor cells) for item n-Butanoyl-Leu-Met-Tyr-Pro-Thr-Tyr-Leu-Lys-OH (Butyryl-LMYPTYLK-OH) [DT-B1] : 45.8 ± 1.2%

Response field Percentage cytotoxicity (PA-1 (Ovary) tumor cells) for item Palmitoyl-Leu-Met-Tyr-Pro-Thr-Tyr-Leu-Lys-OH (Palmitoyl-LMYPTYLK-OH) [DT-P1] : 21.9 ± 2.2%

###

# Lookup of reported Percentage cytotoxicity keyed by entry
Tested on: PA-1 (Ovary) tumor cells
Assay: MTT cytotoxicity assay, PA-1 cells
Assay type: cell-based
Conditions: 1 nM, 48 hours
* marks the point of attachment. Palmitoyl = CCCCCCCCCCCCCCCC(=O)*; Octanoyl = CCCCCCCC(=O)*; Butyryl = CCCC(=O)*
The reply should be a number in %, with the unit left off.

Some solved cases for reference:
n-Octanoyl-Leu-Met-Tyr-Pro-Thr-Tyr-Leu-Lys-OH (Octanoyl-LMYPTYLK-OH) [DT-O1] | 26.0
n-Butanoyl-Leu-Met-Tyr-Pro-Thr-Tyr-Leu-Lys-OH (Butyryl-LMYPTYLK-OH) [DT-B1] | 43.9
Palmitoyl-Leu-Met-Tyr-Pro-Thr-Tyr-Leu-Lys-OH (Palmitoyl-LMYPTYLK-OH) [DT-P1] | 20.5

Consider now this further substance.
Input Ac-LMYPTYLK-OH [DT-A1] . Output Percentage cytotoxicity: 21.9
